B1: mRNA-splicing (parent)
chain: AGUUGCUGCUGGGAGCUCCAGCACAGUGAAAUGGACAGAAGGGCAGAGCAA

Variants of: B1
experiment.summary: exon inclusion enrichment index; higher = more inclusion; WT1 exon 5 minigene, HEK293
Label rule, in plain words: exon inclusion enrichment index of 2 and up is t, under 2 is f.

| seq.text | category.label |
| --- | --- |
| AGUUACCACCGGGAGCUCCAGCACAGUGAAAUGGACAGAAGGGCGAAGCAA [G5A U7C G8A U10C A45G G46A] | t |
| AGUUGCUGCUGGGAGCUAUAGCACAGUGAAAUGGACAGAAGGGCAGAGCAA [C18A C19U] | f |
| AGUUGAAGAAGGGAGCUCCAGCACAGUGUAAUGGACAGAAGGGCAGAGCAA [C6A U7A C9A U10A A29U] | f |
| AGUUCGCGGAGGGAGCUCCAGCACAGUGAAAUGGACAGAAGGGCAGAGCAA [G5C C6G U7C C9G U10A] | t |
| AGUUGCUGCUGGGAGCUCCAGCACAGUGAAAUGGACAGAGGGGCAGAGCAA [A40G] | f |
| AGUUUCUUUUGGGAGCUUAAGCACAGUGAAAUGGACAGAAGGGCAGAGCAA [G5U G8U C9U C18U C19A] | f |
| AGUUCUUCUCGGGAGCUCCAGCACAAGGAAAUGGACAGAAGGGCAGAGCAA [G5C C6U G8C C9U U10C G26A U27G] | t |
| AGUUAGGGAUGGGAGCUCCAGCACAGUGAAAUGCACAGAAGGGCAGAGCAA [G5A C6G U7G C9A G34C] | f |
| AGUUGCUGCUGGGAGCUCCAACACAGUGAAAUGGACAGAAGGGCAGAGCAA [G21A] | f |
| AGUUUCUUUUGGGAGCUCCAGCACAGUGAAAUGGACAGGCGGGCAGAGCAA [G5U G8U C9U A39G A40C] | f |
| AGUUGACGACGGGAGCUCCAGCACAGUGAAAUGGACAGAAGGGGGGAGCAA [C6A U7C C9A U10C C44G A45G] | f |
| AGUUCUUCUCGGGAGCUCCAGCACAGUGAAAUGGAGAGAAGGGCAGAGCAA [G5C C6U G8C C9U U10C C36G] | f |
| AGUUGCGUCUGGGAGCUCCAGCACAGUGAAAUGGACAGAAGGGCAGAGCAA [U7G G8U] | f |
| AGUUUCUUUUGGGAGCUCCAGCACAGUGAAAUGGACAGAAGCGCAGAGCAA [G5U G8U C9U G42C] | f |
| AGUUCGCGCCGGGAGCGUCAGCACAGUGAAAUGGACAGAAGGGCAGAGCAA [G5C C6G U7C U10C U17G C18U] | t |
| AGUUUCUUUUGGGAGCUCCAGCACAGUGAAAUGGAUAGAAGGGCAGAGCAA [G5U G8U C9U C36U] | f |
| AGUUGACGACGGGAGCUCCAGCACAUUGAAAUGGACAGAAGGGCAGAGCAA [C6A U7C C9A U10C G26U] | t |
| AGUUCGCGCCGGGAGCUCCAGCACAGUGAAAUGGACAGAAAGGCAGAGCAA [G5C C6G U7C U10C G41A] | t |
| AGUUUCUUUUGGGAGCUCCAGCACAGUGAAAUGGACAGAAUAGCAGAGCAA [G5U G8U C9U G41U G42A] | f |
| AGUUUCUUUUGGGAGCUCCAGCACAGUGAAAUGGACAGAAGGGCAGAUCAA [G5U G8U C9U G48U] | f |
| AGUUGAAGAAGGGAGCUCCAGCACAGUGAACGGGACAGAAGGGCAGAGCAA [C6A U7A C9A U10A A31C U32G] | f |
| AGUUAGGGAUGGGAGCUCCAGCACAGUGAAAUGGACAGAAGAGCAGAGCAA [G5A C6G U7G C9A G42A] | f |
| AGUUACCACCGGGAGCUCCAGUCCAGUGAAAUGGACAGAAGGGCAGAGCAA [G5A U7C G8A U10C C22U A23C] | f |
| AGUUCCCCUCGGGAGCUCCAGCACAGUGAAAUGGACAGAAGGGCAGAGCAA [G5C U7C G8C C9U U10C] | f |
| AGUUGAAGACUGGAGCUCCAGCACAGUGAAAUGGACAGAAGGGCAGAGCAA [C6A U7A C9A U10C G11U] | t |
| AGUUGAAGAAGGGAGCGGCAGCACAGUGAAAUGGACAGAAGGGCAGAGCAA [C6A U7A C9A U10A U17G C18G] | f |
| AGUUGACGACGGGAGCUCCAGCACAGUGAAAUGGAAUGAAGGGCAGAGCAA [C6A U7C C9A U10C C36A A37U] | t |
| AGUUCUUCUCGGGAGCAGCAGCACAGUGAAAUGGACAGAAGGGCAGAGCAA [G5C C6U G8C C9U U10C U17A C18G] | f |
| AGUUGCUGGCGGGAGCUCCAGCACAGUGAAAUGGACAGAAGGGCAGAGCAA [C9G U10C] | f |
| AGUUACAGAUGGGAGCUCCAGCACAGUGAAAUGGACAGAAGGGCAGAGCAA [G5A U7A C9A] | f |
| AGUUAGGGAUGGGAGCUCCAGCACAGUGAAAUGGACAGAAGGGUAGAGCAA [G5A C6G U7G C9A C44U] | f |
| AGUUGCUGCUGGGAGCUCCAGCACAGUGAAAUGGACGUAAGGGCAGAGCAA [A37G G38U] | f |
| AGUUGACGACGGGAGCUCCAGCACAAUGAAAUGGACAGAAGGGCAGAGCAA [C6A U7C C9A U10C G26A] | t |
| AGUUACCACCGGGAGCUCCUGCACAGUGAAAUGGACAGAAGGGCAGAGCAA [G5A U7C G8A U10C A20U] | t |
| AGUUGCUGCUGGGAGCUGGAGCACAGUGAAAUGGACAGAAGGGCAGAGCAA [C18G C19G] | t |
| AGUUGAAGAAGGGAGCUCCAGCACAGUGAAAUGGACAGUUGGGCAGAGCAA [C6A U7A C9A U10A A39U A40U] | f |
| AGUUGAAGAAGGGAGCUAAAGCACAGUGAAAUGGACAGAAGGGCAGAGCAA [C6A U7A C9A U10A C18A C19A] | f |
| AGUUGCUGCUGGGAGCUCCAGCACAGUGAAAUGGACAGAACUGCAGAGCAA [G41C G42U] | f |
| AGUUCGCGCCGGGAGCUCCAGCACAGUGAAAUGGACAGAAUUGCAGAGCAA [G5C C6G U7C U10C G41U G42U] | t |
| AGUUUCUUUUGGGAGCUCCAGCACAGUGAAAUGGACAGAAGGAAAGAGCAA [G5U G8U C9U G43A C44A] | f |
| AGUUAUAUAUGGGAGCUCCAGCACGCUGAAAUGGACAGAAGGGCAGAGCAA [G5A C6U U7A G8U C9A A25G G26C] | f |
| AGUUCGCGCCGGGAGCAACAGCACAGUGAAAUGGACAGAAGGGCAGAGCAA [G5C C6G U7C U10C U17A C18A] | t |
| AGUUCUCCUCGGGAGCUCCAGCACAGUGAAAUGGACAGAAGGGCAGAGCAA [G5C C6U U7C G8C C9U U10C] | f |
| AGUUACCACCGGGUGCUCCAGCACAGUGAAAUGGACAGAAGGGCAGAGCAA [G5A U7C G8A U10C A14U] | f |
| AGUCGACACAGGGAGCUCCAGCACAGUGAAAUGGACAGAAGGGCAGAGCAA [U4C C6A U7C G8A U10A] | f |
| AGUUAUAUAUGGGAGCUCCAGCACAGUGAAAUCCACAGAAGGGCAGAGCAA [G5A C6U U7A G8U C9A G33C G34C] | f |
| AGUUCGCGCCGGGAGCUCCAGCACAGUGGAAUGGACAGAAGGGCAGAGCAA [G5C C6G U7C U10C A29G] | t |
| AGUUGACGACGGGAGCUCCAGCACAGUGAAAUGGAACGAAGGGCAGAGCAA [C6A U7C C9A U10C C36A A37C] | t |
| AGUUGAAGAAGGGAGCUCCAGCACAGUUAAAUGGACAGAAGGGCAGAGCAA [C6A U7A C9A U10A G28U] | f |
| AGUUUCUUUUGGGAGCUCCAGCUGAGUGAAAUGGACAGAAGGGCAGAGCAA [G5U G8U C9U A23U C24G] | f |
| AGUUAGUUUUGGGAGCUCCAGCACAGUGAAAUGGACAGAAGGGCAGAGCAA [G5A C6G G8U C9U] | f |
| AGUUCUUCUCGGGAGCUCCAGCACAACGAAAUGGACAGAAGGGCAGAGCAA [G5C C6U G8C C9U U10C G26A U27C] | t |
| AGUUGCUGCUGGGAGACCCAGCACAGUGAAAUGGACAGAAGGGCAGAGCAA [C16A U17C] | f |
